tested on: LOC_OS03G50810-cb003; experiment: thermal shift delta Tm vs DMSO control; higher = stronger stabilization (binding); settings: 12.5 µM; protein concentration 2 µM;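 further: purified Escherichia coli-expressed rice kinase domain construct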

COMPOUND	thermal shift delta Tm, °C
CNC(=O)Nc1ccc(-c2nc(N3CC4CCC(C3)O4)c3cnn(C4CCC5(CC4)OCCO5)c3n2)cc1	-0.43
CN(C[C@@H]1COCCO1)S(=O)(=O)Nc1ccc2ccc3ncc(-c4cnn(C)c4)cc3c(=O)c2c1	3.78
CCN(CC)CCCC(C)Nc1ccnc2cc(Cl)ccc12 (stereo not given) [Chloroquine Phosphate]	0.19
Oc1ccc(-c2nc(-c3ccc(F)cc3)c(-c3ccncc3)[nH]2)cc1	0.55
COc1cc(N2CCN(C)CC2)ccc1Nc1nccc(-c2cn(C)c3cnccc23)n1	1.79

###

system: LOC_OS03G50810-cb003; experiment: thermal shift delta Tm vs DMSO control; higher = stronger stabilization (binding); conditions: 12.5 µM; protein concentration 2 µM
Where thermal shift delta Tm equals or exceeds 1 °C, the correct label is 1; where it does not, the label is -1.

MOLECULE	TGT	LABEL VALUE
CONC(=O)c1ccccc1Nc1cc(Nc2cc(C)nn2C(C)C)ncc1Cl	LOC_OS03G50810-cb003	1
O=C(NOCC(O)CO)c1cc(Br)c(F)c(F)c1Nc1ccc(I)cc1F (stereo not given)	LOC_OS03G50810-cb003	-1
N#Cc1ccc2[nH]c(O)c(-c3ccc(CN4CCOCC4)cn3)c2c1	LOC_OS03G50810-cb003	1
COc1cc(Nc2c(C#N)cnc3cc(OCCCN4CCN(C)CC4)c(OC)cc23)c(Cl)cc1Cl [Bosutinib (SKI-606)]	LOC_OS03G50810-cb003	-1
CC(=O)Nc1cccc(-n2c(=O)n(C3CC3)c(=O)c3c(Nc4ccc(I)cc4F)n(C)c(=O)c(C)c32)c1	LOC_OS03G50810-cb003	-1

###

As shown below, each of these compounds has a reported thermal shift delta Tm value.
test system: LOC_OS01G60330-cb001; assay: thermal shift delta Tm vs DMSO control; higher = stronger stabilization (binding); conditions: 12.5 µM; protein concentration 2 µM
OBSERVABLE: thermal shift delta Tm (°C)

COMPOUND	TGT	OBSERVABLE	MEASUREMENT
Cc1nc(NC(=O)N2CCC[C@H]2C(N)=O)sc1-c1ccnc(C(C)(C)C(F)(F)F)c1 [Alpelisib (BYL719)]	LOC_OS01G60330-cb001	thermal shift delta Tm	0.43
O=C(c1ccc(/C=C/c2n[nH]c3ccccc23)cc1)N1CCNCC1	LOC_OS01G60330-cb001	thermal shift delta Tm	11.6
COc1cc2ncnc(Nc3ccc(Oc4ccccc4)cc3C)c2cc1OC	LOC_OS01G60330-cb001	thermal shift delta Tm	0.33
Cc1ccc(Nc2nccc(N(C)c3ccc4c(C)n(C)nc4c3)n2)cc1S(N)(=O)=O [Pazopanib]	LOC_OS01G60330-cb001	thermal shift delta Tm	3.85
CC(C)(C)NC(=O)c1cncn1C1CCN(c2ccc(-c3nnc(C(F)(F)F)o3)cn2)CC1	LOC_OS01G60330-cb001	thermal shift delta Tm	0.32
CNC(=O)c1cccc(-c2ccc3c(N4CCOC[C@@H]4C)nc(N4CCOC[C@@H]4C)nc3n2)c1 [Vistusertib (AZD2014)]	LOC_OS01G60330-cb001	thermal shift delta Tm	0.59
Cc1nc2ccc(-n3ncc(C(=O)c4cc5ccccc5[nH]4)c3N)cc2[nH]1	LOC_OS01G60330-cb001	thermal shift delta Tm	2.34
COc1cc2nccc(Oc3ccc(NC(=O)Nc4cc(C)on4)c(Cl)c3)c2cc1OC [Tivozanib (AV-951)]	LOC_OS01G60330-cb001	thermal shift delta Tm	1.29

Data origin: the supplement of paper PMC9694430
